Target: MAP/microtubule affinity-regulating kinase 4 (Homo sapiens);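 further: values are averaged percent inhibition of MARK4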
Sequence (whole entry): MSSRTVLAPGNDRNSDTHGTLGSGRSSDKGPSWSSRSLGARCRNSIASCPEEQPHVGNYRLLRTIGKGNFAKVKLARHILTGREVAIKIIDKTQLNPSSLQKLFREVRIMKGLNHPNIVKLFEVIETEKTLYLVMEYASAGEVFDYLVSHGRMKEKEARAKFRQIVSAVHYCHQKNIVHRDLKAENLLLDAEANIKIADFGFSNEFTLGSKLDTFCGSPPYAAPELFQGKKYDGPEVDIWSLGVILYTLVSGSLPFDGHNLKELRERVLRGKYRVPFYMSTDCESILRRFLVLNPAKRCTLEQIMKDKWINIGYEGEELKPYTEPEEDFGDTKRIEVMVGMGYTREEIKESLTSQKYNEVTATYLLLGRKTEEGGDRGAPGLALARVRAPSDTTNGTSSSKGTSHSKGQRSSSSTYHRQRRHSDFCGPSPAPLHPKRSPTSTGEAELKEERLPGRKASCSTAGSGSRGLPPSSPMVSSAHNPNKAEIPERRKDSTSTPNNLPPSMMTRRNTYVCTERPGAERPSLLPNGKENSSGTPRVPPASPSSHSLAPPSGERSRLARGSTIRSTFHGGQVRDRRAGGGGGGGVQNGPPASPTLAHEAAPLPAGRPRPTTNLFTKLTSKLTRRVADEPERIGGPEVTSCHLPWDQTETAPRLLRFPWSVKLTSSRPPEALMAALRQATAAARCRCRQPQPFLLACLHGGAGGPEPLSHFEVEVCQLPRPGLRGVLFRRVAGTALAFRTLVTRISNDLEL
Details: at 0.1 µM
Reported inhibition by item:
Express your answer in %, writing the number without its unit.

STRUCTURE AS SMILES	SYSTEM	UNIT ABBREV	inhibition
COc1cccc(-n2ncc3c(N/N=C/c4ccc(C)cc4)ncnc32)c1	MAP/microtubule affinity-regulating kinase 4 (Homo sapiens)	%	2.42
CC(C)c1ccc(Nc2nccc(-c3cnn4ncccc34)n2)cc1	MAP/microtubule affinity-regulating kinase 4 (Homo sapiens)	%	0.24
CS(=O)(=O)CCNCc1nc(-c2ccc3ncnc(Nc4ccc(OCc5cccc(C(F)(F)F)c5)cc4)c3c2)cs1	MAP/microtubule affinity-regulating kinase 4 (Homo sapiens)	%	-0.17
CN(C)c1cc2c(Nc3ccc4c(cnn4Cc4ccccc4)c3)ncnc2cn1	MAP/microtubule affinity-regulating kinase 4 (Homo sapiens)	%	1.14
O=C1Nc2ccccc2/C1=C/Nc1ccc2[nH]c(=O)[nH]c2c1	MAP/microtubule affinity-regulating kinase 4 (Homo sapiens)	%	4.86
CCn1c(-c2nonc2N)nc2ccc(F)cc21	MAP/microtubule affinity-regulating kinase 4 (Homo sapiens)	%	2.45
NC(=O)c1cccc(Nc2nccc(Nc3cccc(F)c3)n2)c1	MAP/microtubule affinity-regulating kinase 4 (Homo sapiens)	%	0.72
Oc1cccc(-c2nc(-c3ccccc3)[nH]c2-c2ccncc2)c1	MAP/microtubule affinity-regulating kinase 4 (Homo sapiens)	%	1.16
[O-][S+]1CCN(Cc2ccc(-c3ccc4ncnc(Nc5ccc(OCc6ccccc6)c(Cl)c5)c4c3)o2)CC1	MAP/microtubule affinity-regulating kinase 4 (Homo sapiens)	%	1.29
O=C(Nc1ccc(Oc2ccc3[nH]c(NC(=O)c4ccco4)nc3c2)cc1)Nc1cc(C(F)(F)F)ccc1F	MAP/microtubule affinity-regulating kinase 4 (Homo sapiens)	%	0.1

Query string: Field request: inhibition | item: Nc1ccc(C#Cc2cncnc2Nc2ccc(OCc3cccc(F)c3)c(Cl)c2)cc1
Result string: 2.36

Query string: Requested read-out: inhibition. Entry: COc1cccc(-n2ncc3c(N/N=C/c4ccc(S(C)(=O)=O)cc4)ncnc32)c1
Result string: 1.03

Query string: If you can, please state the reported inhibition value of O=C1Nc2ccc(-c3cccnc3)cc2C1=Cc1cc(Br)c(O)c(Br)c1 .
Result string: 1.85

----------
molecular target: Vascular endothelial growth factor receptor 1 (Homo sapiens) (UniProt P17948); details: at 0.1 µM
Sequence (P17948 whole entry): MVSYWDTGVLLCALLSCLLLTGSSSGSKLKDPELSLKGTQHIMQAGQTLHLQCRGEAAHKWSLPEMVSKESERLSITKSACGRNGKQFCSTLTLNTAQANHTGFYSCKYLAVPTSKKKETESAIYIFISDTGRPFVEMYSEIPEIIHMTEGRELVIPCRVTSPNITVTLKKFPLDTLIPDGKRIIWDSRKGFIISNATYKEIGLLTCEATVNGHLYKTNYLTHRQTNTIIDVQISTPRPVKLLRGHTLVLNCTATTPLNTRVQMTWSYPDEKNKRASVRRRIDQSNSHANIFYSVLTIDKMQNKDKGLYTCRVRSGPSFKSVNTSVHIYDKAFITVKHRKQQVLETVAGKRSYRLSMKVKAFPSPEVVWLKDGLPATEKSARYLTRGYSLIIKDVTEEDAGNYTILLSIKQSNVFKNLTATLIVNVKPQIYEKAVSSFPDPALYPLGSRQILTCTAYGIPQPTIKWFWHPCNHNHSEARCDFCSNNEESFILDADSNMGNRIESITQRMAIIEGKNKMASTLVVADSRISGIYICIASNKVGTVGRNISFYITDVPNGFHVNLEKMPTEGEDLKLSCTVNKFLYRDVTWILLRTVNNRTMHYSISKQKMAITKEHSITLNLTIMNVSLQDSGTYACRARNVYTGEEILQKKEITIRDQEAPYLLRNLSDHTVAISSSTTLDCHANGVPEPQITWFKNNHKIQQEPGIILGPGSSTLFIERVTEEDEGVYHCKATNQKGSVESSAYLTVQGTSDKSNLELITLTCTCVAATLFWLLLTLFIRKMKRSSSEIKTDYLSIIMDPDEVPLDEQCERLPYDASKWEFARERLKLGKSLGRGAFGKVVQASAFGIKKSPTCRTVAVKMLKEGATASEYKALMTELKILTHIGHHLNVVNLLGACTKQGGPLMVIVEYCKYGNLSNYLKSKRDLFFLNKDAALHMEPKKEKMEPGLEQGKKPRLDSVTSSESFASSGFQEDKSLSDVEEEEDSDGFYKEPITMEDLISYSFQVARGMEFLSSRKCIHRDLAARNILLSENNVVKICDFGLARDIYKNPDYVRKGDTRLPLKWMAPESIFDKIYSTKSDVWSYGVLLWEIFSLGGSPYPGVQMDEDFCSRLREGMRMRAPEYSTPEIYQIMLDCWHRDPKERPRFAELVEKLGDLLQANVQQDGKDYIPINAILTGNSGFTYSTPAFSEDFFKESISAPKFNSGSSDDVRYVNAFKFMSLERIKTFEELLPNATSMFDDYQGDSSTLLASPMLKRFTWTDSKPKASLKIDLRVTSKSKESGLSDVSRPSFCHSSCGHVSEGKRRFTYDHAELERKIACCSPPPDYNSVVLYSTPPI
Reported inhibition values for the following molecules.
Return type: number; implicit unit %.

Consider the following illustrative entries.
STRUCTURE AS SMILES	OBSERVED PROPERTY	NUMBER
c1ccc(Nc2ncc(-c3ccccc3)o2)cc1	inhibition	1.21
Cc1cc(Cl)cc2c1NC(=O)C2=NNc1ccc(S(N)(=O)=O)cc1	inhibition	0.01
COc1cc(Nc2nccc(-c3cnn4ncccc34)n2)cc(OC)c1	inhibition	10.4
CC(C)c1ccc(Nc2nccc(-c3cnn4ncccc34)n2)cc1	inhibition	3.33
OCc1ccc(-c2nc(-c3ccccn3)c(-c3ccc4c(c3)OCO4)[nH]2)cc1	inhibition	0.94

Query string: Item Cc1cc(-c2ccccn2)cc(C)c1/C=C/c1cncc(-c2nn[nH]n2)c1 with Vascular endothelial growth factor receptor 1 (Homo sapiens) (UniProt P17948) - inhibition?
Result string: -0.29

Query string: Observed inhibition on Vascular endothelial growth factor receptor 1 (Homo sapiens) (UniProt P17948) for CCOc1nccc2c1nc(-c1nonc1N)n2CC , please.
Result string: 2.14

----------
target: Serine/threonine-protein kinase Sgk3 (Homo sapiens) (UniProt Q96BR1); settings: at 0.1 µM;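 further: reported percentages are averaged inhibition values against SGK3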
Sequence (Q96BR1 whole entry): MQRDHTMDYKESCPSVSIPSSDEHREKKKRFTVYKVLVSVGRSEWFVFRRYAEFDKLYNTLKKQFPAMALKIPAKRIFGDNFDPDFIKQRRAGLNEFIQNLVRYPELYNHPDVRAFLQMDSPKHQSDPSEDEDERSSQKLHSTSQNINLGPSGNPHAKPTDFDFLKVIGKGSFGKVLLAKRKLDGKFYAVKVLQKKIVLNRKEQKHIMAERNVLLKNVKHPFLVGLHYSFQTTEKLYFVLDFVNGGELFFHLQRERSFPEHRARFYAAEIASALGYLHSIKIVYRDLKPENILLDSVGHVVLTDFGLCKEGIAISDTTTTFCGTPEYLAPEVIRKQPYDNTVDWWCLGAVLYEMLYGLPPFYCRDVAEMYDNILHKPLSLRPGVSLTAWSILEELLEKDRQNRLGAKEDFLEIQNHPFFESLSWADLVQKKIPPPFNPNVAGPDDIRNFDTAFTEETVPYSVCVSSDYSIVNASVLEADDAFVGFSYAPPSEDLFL
OBSERVED PROPERTY: inhibition (%)
Numeric answer only, unit % assumed.

Guide cases for inhibition, answers given:
STRUCTURE AS SMILES	inhibition (%)
COc1cc(Nc2nccc(-c3cnn4ncccc34)n2)cc(OC)c1	1.95
CN(C)C(=O)O[C@@H]1CN[C@@H](C#Cc2cc3ncnc(Nc4ccc(OCc5cccc(F)c5)c(Cl)c4)c3s2)C1	-0.94
CC(C)c1ccc(Nc2nccc(-c3cnn4ncccc34)n2)cc1	2.01
CCn1c(-c2nonc2N)nc2c(C#CC(C)(C)O)nc(OCCNC)cc21	2.71
C[C@@H](Oc1cc(-n2cnc3ccc(OCC4CCN(C)CC4)cc32)sc1C(N)=O)c1ccccc1C(F)(F)F	-1.97

Query string: Which value of inhibition has been reported for CC(C)c1ccc2c(c1)NC(=O)/C2=N/Nc1ccc(S(N)(=O)=O)cc1 in the records?
Result string: 4.97

Query string: What measured inhibition goes with CN(C)C(=O)O[C@H]1CN[C@H](C#Cc2cc3ncnc(Nc4ccc(OCc5cccc(F)c5)c(Cl)c4)c3s2)C1 ?
Result string: 0.13

----------
target: Casein kinase II subunit alpha (Homo sapiens) (UniProt P68400); conditions: at 1 µM;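 further: reported value is the mean CK2 inhibition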
Sequence (P68400 whole entry, looked up): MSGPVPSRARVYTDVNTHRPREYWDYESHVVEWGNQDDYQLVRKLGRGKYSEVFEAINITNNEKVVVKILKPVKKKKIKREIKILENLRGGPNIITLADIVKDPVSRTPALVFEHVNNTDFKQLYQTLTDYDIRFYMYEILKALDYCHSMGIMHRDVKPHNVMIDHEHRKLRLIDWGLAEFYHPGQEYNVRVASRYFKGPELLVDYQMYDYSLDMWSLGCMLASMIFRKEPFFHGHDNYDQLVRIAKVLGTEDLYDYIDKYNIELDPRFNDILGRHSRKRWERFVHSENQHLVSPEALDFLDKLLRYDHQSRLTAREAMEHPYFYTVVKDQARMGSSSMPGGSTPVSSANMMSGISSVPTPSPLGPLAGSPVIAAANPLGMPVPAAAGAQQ
Quick rule: inhibition of at least 10% means true, below that means false.

See these solved cases before continuing.
STRUCTURE AS SMILES	ASSIGNED LABEL
NS(=O)(=O)c1ccc(N/N=C2\C(=O)Nc3ccc(Cl)cc32)cc1	true
COc1cc(/C=N/Nc2ncnc3c2cnn3C(C)C)ccc1O	true
Nc1ccc(C#Cc2cncnc2Nc2ccc(OCc3cccc(F)c3)c(Cl)c2)cc1	false
NC(=O)c1cccc(Nc2nccc(Nc3cccc(F)c3)n2)c1	false

Then this molecule:
Query string: Does the reported inhibition for Oc1cccc(-c2nc(-c3ccccc3)[nH]c2-c2ccncc2)c1 fall at or above the 10% mark?
Result string: false

----------
target: Vascular endothelial growth factor receptor 1 (Homo sapiens); conditions: at 1 µM
Description: GSK_PKIS: FLT1 mean inhibition at 1 uM [Nanosyn]
OBSERVED PROPERTY: inhibition (%)
Just the number please, in %, no unit attached.

STRUCTURE AS SMILES	inhibition, %
COc1cc(/C=N/Nc2ncnc3c2cnn3C(C)C)ccc1O	3.88
COc1cc2ncnc(Nc3ccc(C)c(O)c3)c2cc1OC	93.2
Cc1ccc2c(-c3ccnc(Nc4ccc5c(c4)OCCO5)n3)c(-c3ccc(C(F)(F)F)cc3)nn2n1	-0.4
O=C1Nc2ccccc2/C1=C/Nc1ccc2[nH]c(=O)[nH]c2c1	30.1
Cc1ccc(O)cc1Nc1ccnc2ccc(S(C)(=O)=O)cc12	72.6
NS(=O)(=O)c1ccc(-c2cc3ccncc3cc2OCc2ccccc2)cc1	2.57
NS(=O)(=O)c1cccc(-c2cc3ccncc3cc2OCc2ccccc2)c1	3.8
NS(=O)(=O)c1ccc(NC=C2C(=O)Nc3ccc4ncsc4c32)cc1	67.6
COC(=O)Nc1nc2cc(Oc3ccc(NC(=O)Nc4cccc(Br)c4)cc3)ccc2[nH]1	53.7
COc1ccc(-c2nn3ncccc3c2-c2ccnc(Nc3cccc(C(F)(F)F)c3)n2)cc1	10.2

Query string: Sample COc1cc(Nc2nccc(-c3cnn4ncccc34)n2)cc(OC)c1 — what was its inhibition?
Result string: 30.9

Query string: Name the reported inhibition value associated with the compound Nc1nccc(-c2c(-c3ccc(F)cc3)ncn2CCCN2CCOCC2)n1
Result string: -0.18

----------
target: Glycogen synthase kinase-3 alpha (Homo sapiens) (UniProt P49840); settings: at 1 µM;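 further: each figure is a mean percent inhibition of GSK3A activity, from a screen of the GSK published kinase inhibitor set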
Sequence (P49840 2-483 limits assumed): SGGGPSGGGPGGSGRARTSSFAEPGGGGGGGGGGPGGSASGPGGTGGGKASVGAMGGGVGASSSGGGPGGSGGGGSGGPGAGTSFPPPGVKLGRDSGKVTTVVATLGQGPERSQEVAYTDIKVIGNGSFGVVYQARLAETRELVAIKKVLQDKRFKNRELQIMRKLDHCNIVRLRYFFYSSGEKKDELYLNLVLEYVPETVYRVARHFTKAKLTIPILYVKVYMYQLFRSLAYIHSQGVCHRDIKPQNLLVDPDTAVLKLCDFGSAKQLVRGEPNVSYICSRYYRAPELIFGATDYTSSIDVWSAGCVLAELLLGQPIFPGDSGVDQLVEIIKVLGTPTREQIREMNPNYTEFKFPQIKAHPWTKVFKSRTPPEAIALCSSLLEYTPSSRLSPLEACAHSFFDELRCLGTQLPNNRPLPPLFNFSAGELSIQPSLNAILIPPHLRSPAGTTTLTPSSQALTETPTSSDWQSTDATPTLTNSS
OBSERVED PROPERTY: inhibition (%)
Write the answer as a number in %, unit excluded.

STRUCTURE AS SMILES	inhibition (%)
O=C(Nc1ccc(Oc2ccc3[nH]c(NC(=O)c4ccco4)nc3c2)cc1)Nc1cc(C(F)(F)F)ccc1F	2.71

Query string: What does the record list as inhibition for Nc1nccc(C#Cc2cncnc2Nc2ccc(OCc3cccc(F)c3)c(Cl)c2)n1 ?
Result string: 14.3

Query string: What does the data say about its inhibition? Entry: CCOc1nccc2c1nc(-c1nonc1N)n2CC
Result string: 10.2
